This collection of values is drawn from the RNAGym collection of RNA variant scans (doi:10.1126/science.aae0568).

B1: tRNA (parent)
chain: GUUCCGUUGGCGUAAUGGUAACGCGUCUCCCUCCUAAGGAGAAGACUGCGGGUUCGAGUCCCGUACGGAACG

Variants of: B1
ASSAY PROTOCOL: yeast fitness relative to wild type (ratio to wild type); higher = fitter; tRNA-Arg(CCU), competitive growth, 37 C, YPD
Variants at the floor of the assay were thinned out.
MEASURED QUANTITY: yeast fitness

RESIDUES	yeast fitness
GUUCUGUCGGCGUAAUGGUAACGCGUCUGCCUCCUAAGGAGAAGACUGCGGGGUCGAGUCCCGUACGGAACG	≤ 0.5
GUUCCGUUGGCGUAAUGGUAACGCGUCUACCUGCCAAGGAGAAGACUGUGGGUUCGCGUACCGUACGGAACG	0.644
GUUCGGUUGGCGUAAUGGUAGCGCGUCUCCCUCCUAAGGAGAAGACUGAGGGUCCGAGUCCCGUGCGGAACG	≤ 0.5
GUUCCGUUGGCGUAAUGGCAAAGCGUCUCCCUCCUAAGGAGAAGACUGCGGGUUGGAGUCCUGUACGGAACG	≤ 0.5
GUUCCGUUGGCGUAAUGGUAACGCGUCUCCCUCCUAAGGAGCAGACUGCGGGUUCGAGUCCCGUACGGAUCG	1.02
GUUCCGUUGGCGUAAUGGUAAUACGUCUCCCUCCUAAGGAGAAGACUGCGGGUUCGAGUCCCGUACGGACCG	≤ 0.5

Provide each entry's yeast fitness from the list below.
1. GUUCCGUUGGCGUAAUGGUAACGCGUCUCCCUCCUAAGGAGACGACUGCGGGUUCGCGUCCCGUACGGUACG
2. GUUCCGUUGGGGUAAUGGUAACGCGUCUCCCUCAUAAGGAGAAGGCUGCGGGUACGAGUCCCGUACGGAACG
3. GUUCUAUUGGAGUAAUGGAAACGCGUCUCCCUCCUAAGGAGAAGACUGCGGGUUCGAGUCCCGUACGGUACG
4. GUUCCGUUGGCGUAAUGGUAACGCGUCUCCCUCCUAAGGAGAAGGCUGAGGGUUCGAGUCCAGUACGGAACG
5. GUUCCGUUGGCGUAGUGGUUACGCGUCUGCCUCCUAAGGAGAGGACUGCGGGUUCGAGUCCCGUACGGAACG

Solution:
1. ≤ 0.5
2. ≤ 0.5
3. ≤ 0.5
4. ≤ 0.5
5. ≤ 0.5
